Provenance of the data: ChEMBL document CHEMBL2434871

Listing of recorded IC50 by entry.
tested on: NCI-N87; experiment: Cytotoxicity against human NCI-N87 cells after 72 hrs by SRB assay; format: functional, cell-based; settings: NCI-N87, 72 h

molecule | IC50 (µM)
CS(=O)(=O)CCNCc1ccc(-c2ccc3ncnc(Nc4ccc(OCc5cccc(F)c5)c(Cl)c4)c3c2)o1.Cc1ccc(S(=O)(=O)O)cc1.Cc1ccc(S(=O)(=O)O)cc1.O [LAPATINIB DITOSYLATE] | 0.0462
Cc1ccc(S(=O)(=O)O)cc1.O=S(=O)(CCNCc1ccc(-c2ccc3ncnc(Nc4ccc(OCc5cccc(F)c5)c(Cl)c4)c3c2)o1)CC(F)(F)F | 0.0513
CSCCNCc1ccc(-c2ccc3ncnc(Nc4ccc(OCc5cccc(F)c5)c(Cl)c4)c3c2)o1.Cc1ccc(S(=O)(=O)O)cc1 | 0.0473
Cc1ccc(S(=O)(=O)O)cc1.Fc1cccc(COc2ccc(Nc3ncnc4ccc(-c5ccc(CN6CCNCC6)o5)cc34)cc2Cl)c1 | 0.0292
Fc1cccc(COc2ccc(Nc3ncnc4ccc(-c5ccc(CN6CCOCC6)o5)cc34)cc2Cl)c1 | 0.0628

---

Listing of recorded Cmax by entry.
assay: Cmax in Wistar rat at 100 mg/kg, po; type: ADME, organism-based; parameters: dose 100 mg/kg, route oral; conditions: in vivo
observed-property: Cmax (µg/mL)

molecule | observed-property | quantitative-readout
CS(=O)(=O)CCNCc1ccc(-c2ccc3ncnc(Nc4ccc(OCc5cccc(F)c5)c(Cl)c4)c3c2)o1.Cc1ccc(S(=O)(=O)O)cc1.Cc1ccc(S(=O)(=O)O)cc1.O [LAPATINIB DITOSYLATE] | Cmax | 3.9
C[S+]([O-])CCNCc1ccc(-c2ccc3ncnc(Nc4ccc(OCc5cccc(F)c5)c(Cl)c4)c3c2)o1.Cc1ccc(S(=O)(=O)O)cc1 (stereo not drawn) | Cmax | 8.88
CSCCNCc1ccc(-c2ccc3ncnc(Nc4ccc(OCc5cccc(F)c5)c(Cl)c4)c3c2)o1.Cc1ccc(S(=O)(=O)O)cc1 | Cmax | 0.854

---

test: Tmax in Wistar rat at 100 mg/kg, po; type: ADME, organism-based; design: dose 100 mg/kg, route oral; conditions: in vivo

compound | Tmax, h
CS(=O)(=O)CCNCc1ccc(-c2ccc3ncnc(Nc4ccc(OCc5cccc(F)c5)c(Cl)c4)c3c2)o1.Cc1ccc(S(=O)(=O)O)cc1.Cc1ccc(S(=O)(=O)O)cc1.O [LAPATINIB DITOSYLATE] | 2.5
CSCCNCc1ccc(-c2ccc3ncnc(Nc4ccc(OCc5cccc(F)c5)c(Cl)c4)c3c2)o1.Cc1ccc(S(=O)(=O)O)cc1 | 3
C[S+]([O-])CCNCc1ccc(-c2ccc3ncnc(Nc4ccc(OCc5cccc(F)c5)c(Cl)c4)c3c2)o1.Cc1ccc(S(=O)(=O)O)cc1 (stereo not drawn) | 3.5

---

Listing of recorded MRT by entry.
assay: Mean residence time in Wistar rat at 100 mg/kg, po; assay type: ADME, organism-based; set-up: dose 100 mg/kg, route oral; details: in vivo
observed-property: MRT (h)

compound | quantitative-readout
CSCCNCc1ccc(-c2ccc3ncnc(Nc4ccc(OCc5cccc(F)c5)c(Cl)c4)c3c2)o1.Cc1ccc(S(=O)(=O)O)cc1 | 8.19
C[S+]([O-])CCNCc1ccc(-c2ccc3ncnc(Nc4ccc(OCc5cccc(F)c5)c(Cl)c4)c3c2)o1.Cc1ccc(S(=O)(=O)O)cc1 (stereo not drawn) | 5.38
CS(=O)(=O)CCNCc1ccc(-c2ccc3ncnc(Nc4ccc(OCc5cccc(F)c5)c(Cl)c4)c3c2)o1.Cc1ccc(S(=O)(=O)O)cc1.Cc1ccc(S(=O)(=O)O)cc1.O [LAPATINIB DITOSYLATE] | 5.52

---

Epidermal growth factor receptor (Homo sapiens, UniProt P00533) measurements of pIC50, listed per entry.
Sequence (P00533 whole entry): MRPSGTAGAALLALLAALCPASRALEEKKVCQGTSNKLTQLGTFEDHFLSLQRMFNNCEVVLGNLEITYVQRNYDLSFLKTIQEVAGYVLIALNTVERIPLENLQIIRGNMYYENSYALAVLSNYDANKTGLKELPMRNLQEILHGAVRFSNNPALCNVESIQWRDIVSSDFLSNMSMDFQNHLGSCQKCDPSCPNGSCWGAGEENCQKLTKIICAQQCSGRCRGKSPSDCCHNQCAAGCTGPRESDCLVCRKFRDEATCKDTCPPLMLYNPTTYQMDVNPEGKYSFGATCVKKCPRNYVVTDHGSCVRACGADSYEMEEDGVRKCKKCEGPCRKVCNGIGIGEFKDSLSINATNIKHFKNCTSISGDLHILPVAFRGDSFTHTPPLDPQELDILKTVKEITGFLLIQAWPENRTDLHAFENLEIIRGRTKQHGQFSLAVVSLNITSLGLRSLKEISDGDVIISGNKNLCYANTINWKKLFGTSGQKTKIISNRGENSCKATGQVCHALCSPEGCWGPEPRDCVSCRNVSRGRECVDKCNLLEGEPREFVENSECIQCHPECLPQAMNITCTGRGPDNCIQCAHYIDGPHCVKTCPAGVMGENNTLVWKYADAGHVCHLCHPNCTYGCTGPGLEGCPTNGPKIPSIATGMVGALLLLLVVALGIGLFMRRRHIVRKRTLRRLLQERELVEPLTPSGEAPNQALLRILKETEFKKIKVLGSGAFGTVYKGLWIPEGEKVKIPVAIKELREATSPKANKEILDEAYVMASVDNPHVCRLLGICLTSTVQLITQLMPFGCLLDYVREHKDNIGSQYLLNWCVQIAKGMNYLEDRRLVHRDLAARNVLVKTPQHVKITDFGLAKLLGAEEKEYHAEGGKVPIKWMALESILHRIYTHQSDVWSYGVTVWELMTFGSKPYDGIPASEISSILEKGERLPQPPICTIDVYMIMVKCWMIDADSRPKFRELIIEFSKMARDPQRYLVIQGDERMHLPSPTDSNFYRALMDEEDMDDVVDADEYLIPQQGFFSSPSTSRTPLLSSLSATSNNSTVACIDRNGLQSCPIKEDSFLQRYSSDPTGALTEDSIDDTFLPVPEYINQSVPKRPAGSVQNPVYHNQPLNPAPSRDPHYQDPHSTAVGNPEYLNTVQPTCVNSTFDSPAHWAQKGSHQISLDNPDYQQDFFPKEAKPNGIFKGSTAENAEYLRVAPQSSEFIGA
pIC50: −log10 of the molar value.
observed-property: pIC50

smiles-data | observed-property | quantitative-readout
CS(=O)(=O)NCCNCc1ccc(-c2ccc3ncnc(Nc4ccc(OCc5cccc(F)c5)c(Cl)c4)c3c2)o1 | pIC50 | 7.73
CSCCNCc1ccc(-c2ccc3ncnc(Nc4ccc(OCc5cccc(F)c5)c(Cl)c4)c3c2)o1.Cc1ccc(S(=O)(=O)O)cc1 | pIC50 | 7.60
Fc1cccc(COc2ccc(Nc3ncnc4ccc(-c5ccc(CN6CCOCC6)o5)cc34)cc2Cl)c1 | pIC50 | 7.59
Cc1ccc(S(=O)(=O)O)cc1.O=S(=O)(CCNCc1ccc(-c2ccc3ncnc(Nc4ccc(OCc5cccc(F)c5)c(Cl)c4)c3c2)o1)CC(F)(F)F | pIC50 | 7.68
CS(=O)(=O)N1CCN(Cc2ccc(-c3ccc4ncnc(Nc5ccc(OCc6cccc(F)c6)c(Cl)c5)c4c3)o2)CC1 | pIC50 | 7.22

---

experiment: AUC (0 to infinity) in Wistar rat at 100 mg/kg, po; assay type: ADME, organism-based; parameters: time infinity, dose 100 mg/kg, route oral; details: plasma
Listing of recorded AUC(0-inf) by entry.

compound | AUC(0-inf)
CSCCNCc1ccc(-c2ccc3ncnc(Nc4ccc(OCc5cccc(F)c5)c(Cl)c4)c3c2)o1.Cc1ccc(S(=O)(=O)O)cc1 | 8.13 µg·h/mL
CS(=O)(=O)CCNCc1ccc(-c2ccc3ncnc(Nc4ccc(OCc5cccc(F)c5)c(Cl)c4)c3c2)o1.Cc1ccc(S(=O)(=O)O)cc1.Cc1ccc(S(=O)(=O)O)cc1.O [LAPATINIB DITOSYLATE] | 26.9 µg·h/mL
C[S+]([O-])CCNCc1ccc(-c2ccc3ncnc(Nc4ccc(OCc5cccc(F)c5)c(Cl)c4)c3c2)o1.Cc1ccc(S(=O)(=O)O)cc1 (stereo not drawn) | 53.2 µg·h/mL

---

Listing of recorded solubility by entry.
assay: Aqueous solubility of the compound at 25 degC by shake-flask method; type: physicochemical; conditions: unbuffered water
observed-property: solubility (µg/mL)

molecule | observed-property | unit | quantitative-readout
CSCCNCc1ccc(-c2ccc3ncnc(Nc4ccc(OCc5cccc(F)c5)c(Cl)c4)c3c2)o1.Cc1ccc(S(=O)(=O)O)cc1 | solubility | µg/mL | 3
Cc1ccc(S(=O)(=O)O)cc1.O=S(=O)(CCNCc1ccc(-c2ccc3ncnc(Nc4ccc(OCc5cccc(F)c5)c(Cl)c4)c3c2)o1)CC(F)(F)F | solubility | µg/mL | 16.7
CS(=O)(=O)CCNCc1ccc(-c2ccc3ncnc(Nc4ccc(OCc5cccc(F)c5)c(Cl)c4)c3c2)o1.Cc1ccc(S(=O)(=O)O)cc1.Cc1ccc(S(=O)(=O)O)cc1.O [LAPATINIB DITOSYLATE] | solubility | µg/mL | 7
